These data points were gathered from PubChem BioAssay AID588458.

system-tested: DNA (cytosine-5)-methyltransferase 1 (Homo sapiens)
protocol-text: inhibition of DNA methyltransferase DNMT1 – biochemical, molecular beacon, fluorescence, HinP1I cleavage, uHTS, primary screen (AID 588458)
condition-label: at 10 µM, hits give high values
Among all 360,000 compounds or so, about 3,000 (0.83%) were called active. This excerpt belongs to a sample that is enriched for actives.
measured-attribute: inhibition (reported as % activation of signal) (%)
Numeric answer only, unit % assumed.

Solved cases (4 shown):
{"molecule": "O=C(N/N=C/c1cccc(OC(=O)c2ccc([N+](=O)[O-])cc2)c1)c1cccnc1", "readout-number": 2.43}
{"molecule": "COc1cc2c(cc1OC)C(Cc1cc(OC)c(OC)cc1[N+](=O)[O-])=NCC2", "readout-number": -13.1}
{"molecule": "NC(=O)CCC(NS(=O)(=O)c1ccc(Cl)cc1)C(=O)NCc1ccccc1Cl (stereo not given)", "readout-number": 4.11}
{"molecule": "Cc1cc(C)cc(OCC(=O)Nc2ccc(N3CCOCC3)cc2N2CCOCC2)c1", "readout-number": -5.22}

Attention now turns to another entry.
For the molecule shown here, O=C(COc1ccc([N+](=O)[O-])cc1)Nc1cccc(C(=O)Nc2ccccc2C(=O)O)c1 , give the reported inhibition (reported as % activation of signal).
-0.08

----------
system-tested: DNA (cytosine-5)-methyltransferase 1 (Homo sapiens)
protocol-text: inhibition of DNA methyltransferase DNMT1 – biochemical, molecular beacon, fluorescence, HinP1I cleavage, uHTS, primary screen (AID 588458)
condition-label: at 10 µM, hits give high values
In all, about 360,000 compounds went through this assay and about 3,000 (0.83%) were called active. The sample holds actives, similar compounds and a random draw of the others, so the mix is not that of the screen.
measured-attribute: inhibition (reported as % activation of signal) (%)
Numeric answer only, unit % assumed.

Solved cases (5 shown):
{"compound": "CCOC(=O)C1(Cc2ccc(Cl)cc2)CCN(C(=O)C2=NNC(=O)CC2)CC1", "readout-number": -1.13}
{"compound": "COc1cc(NS(=O)(=O)c2ccc(N/C=C(\\C=O)c3nc4cc(Cl)ccc4o3)cc2)nc(OC)n1", "readout-number": -2.63}
{"compound": "CC(=O)Nc1ccc(S(=O)(=O)Nc2cc(C)cn(Cc3ccc(C)cc3)c2=O)cc1", "readout-number": -4.47}
{"compound": "C=CCNC(=O)COC(=O)CNC(=O)c1cc(Cl)cc([N+](=O)[O-])c1", "readout-number": 6.93}
{"compound": "COc1ccccc1CNS(=O)(=O)c1c(C)[nH]c(C)c1C(=O)N1CCCCC1", "readout-number": 2.18}

For the compound shown here, COc1ccc2[nH]c(=O)c(-c3noc(-c4ccc(F)cc4)n3)cc2c1 , give the reported inhibition (reported as % activation of signal).
95.2

For the compound shown here, COc1ccc(C(=O)OCC(=O)NCCCc2ccccc2)cc1OC , give the reported inhibition (reported as % activation of signal).
0.32

----------
system-tested: DNA (cytosine-5)-methyltransferase 1 (Homo sapiens)
protocol-text: inhibition of DNA methyltransferase DNMT1 – biochemical, molecular beacon, fluorescence, HinP1I cleavage, uHTS, primary screen (AID 588458)
condition-label: at 10 µM
Hit rate of the full screen: of about 360,000 compounds, about 3,000 (0.83%) were called active. Rule as the data show it: active = inhibition above about 50%; inactive = the rest. The sample holds actives, similar compounds and a random draw of the others, so the mix is not that of the screen.
Permitted responses: active, inactive

Below are worked cases with known answers.
{"compound": "N#CCC(=O)Nc1ccc(C(=O)OCC(=O)Nc2sc3c(c2C#N)CCCC3)cc1", "label-class": "inactive"}
{"compound": "CC(C)Oc1ccc(S(=O)(=O)N2CCOCC2)cc1NC(=O)C1CCCC1", "label-class": "inactive"}

What call does the record list for CC1CN(C(=O)c2cccc(NS(=O)(=O)c3ccc(Br)cc3)c2)CC(C)O1 (configuration not stated) ?
inactive

What call does the record list for COC(=O)C1=C(C)NC(=S)NC1c1ccc(OCC(=O)N2CC(C)OC(C)C2)c(OC)c1 (configuration not stated) ?
inactive

What call does the record list for Cc1ccc(N=C2NC(=O)/C(=C/C=C/c3ccco3)S2)cc1C ?
active

----------
system-tested: DNA (cytosine-5)-methyltransferase 1 (Homo sapiens)
protocol-text: inhibition of DNA methyltransferase DNMT1 – biochemical, molecular beacon, fluorescence, HinP1I cleavage, uHTS, primary screen (AID 588458)
condition-label: at 10 µM, hits give high values
Among all 360,000 compounds or so, about 3,000 (0.83%) were called active. Shown is part of a subset that was picked to be rich in actives.
measured-attribute: inhibition (reported as % activation of signal)

For the molecule shown here, CC(C(=O)Nc1ccc(O)c(C(=O)O)c1)N1C(=O)/C(=C/c2cccs2)SC1=S (stereo not given) , give the reported inhibition (reported as % activation of signal).
-9.71% (inactive)

----------
system-tested: DNA (cytosine-5)-methyltransferase 1 (Homo sapiens) (UniProt P26358)
Sequence (P26358 504-1616 limits assumed): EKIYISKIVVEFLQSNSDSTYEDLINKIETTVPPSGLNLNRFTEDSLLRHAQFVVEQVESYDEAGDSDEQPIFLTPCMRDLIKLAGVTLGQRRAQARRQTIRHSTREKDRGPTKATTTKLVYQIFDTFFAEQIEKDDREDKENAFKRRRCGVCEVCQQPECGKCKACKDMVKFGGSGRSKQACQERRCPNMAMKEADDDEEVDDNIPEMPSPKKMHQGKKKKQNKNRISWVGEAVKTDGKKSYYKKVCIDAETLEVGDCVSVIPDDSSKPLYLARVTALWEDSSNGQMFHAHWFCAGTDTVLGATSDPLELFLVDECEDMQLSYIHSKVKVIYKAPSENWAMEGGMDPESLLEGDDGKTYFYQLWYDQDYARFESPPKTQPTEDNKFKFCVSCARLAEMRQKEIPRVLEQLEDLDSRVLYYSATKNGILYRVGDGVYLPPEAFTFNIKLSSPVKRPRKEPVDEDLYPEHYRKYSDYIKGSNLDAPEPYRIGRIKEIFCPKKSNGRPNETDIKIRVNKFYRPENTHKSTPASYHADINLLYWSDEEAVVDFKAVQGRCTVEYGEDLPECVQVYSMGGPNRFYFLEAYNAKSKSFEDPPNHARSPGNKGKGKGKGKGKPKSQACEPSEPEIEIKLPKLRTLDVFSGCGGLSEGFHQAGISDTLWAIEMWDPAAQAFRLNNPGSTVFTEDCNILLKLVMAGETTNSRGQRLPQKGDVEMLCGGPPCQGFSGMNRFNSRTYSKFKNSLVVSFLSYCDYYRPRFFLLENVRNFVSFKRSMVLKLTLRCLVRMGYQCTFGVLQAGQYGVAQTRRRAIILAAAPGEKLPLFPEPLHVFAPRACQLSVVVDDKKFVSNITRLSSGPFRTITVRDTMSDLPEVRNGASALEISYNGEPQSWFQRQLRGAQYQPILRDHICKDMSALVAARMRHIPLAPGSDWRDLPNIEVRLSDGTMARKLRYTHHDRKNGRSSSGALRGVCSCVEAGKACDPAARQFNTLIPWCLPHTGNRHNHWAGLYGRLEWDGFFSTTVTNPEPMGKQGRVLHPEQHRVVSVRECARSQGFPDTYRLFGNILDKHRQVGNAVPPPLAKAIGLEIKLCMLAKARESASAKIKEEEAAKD
protocol-text: inhibition of DNA methyltransferase DNMT1 – biochemical, molecular beacon, fluorescence, HinP1I cleavage, uHTS, primary screen (AID 588458)
condition-label: at 10 µM, hits give high values
Hit rate of the full screen: of about 360,000 compounds, about 3,000 (0.83%) were called active. The sample as a whole holds a higher share of actives than the screen did.
measured-attribute: inhibition (reported as % activation of signal) (%)
Numeric answer only, unit % assumed.

Solved cases (2 shown):
{"molecule": "CC(=O)NCCc1ccc(S(=O)(=O)N(C)C2CCS(=O)(=O)C2)cc1 (stereo not given)", "readout-number": 0.81}
{"molecule": "CCOC1=C2[C@H]([C@H]3C(=O)N(c4ccccc4)C(=O)[C@H]3C1)[C@@H](c1ccccc1)N(S(=O)(=O)c1ccc(C)cc1)[C@H]2c1ccccc1", "readout-number": 0.54}

For the molecule shown here, CCCCN(C)CCNC(=O)CSCc1ccc(C)cc1 , give the reported inhibition (reported as % activation of signal).
1.5

For the molecule shown here, Oc1ccc2ccc3cccc[n+]3c2c1 , give the reported inhibition (reported as % activation of signal).
59

For the molecule shown here, CCCc1cc(=O)[nH]c(SCC(=O)Nc2sc3c(c2C#N)CCCC3)n1 , give the reported inhibition (reported as % activation of signal).
-0.63

For the molecule shown here, Cc1ccc(-n2c(=O)cc(N3CCN(Cc4ccccc4)CC3)[nH]c2=O)cc1 , give the reported inhibition (reported as % activation of signal).
-5.41

For the molecule shown here, O=C1CSC(=S)N1/N=C/c1ccc(O)c([N+](=O)[O-])c1 , give the reported inhibition (reported as % activation of signal).
76.8

----------
system-tested: DNA (cytosine-5)-methyltransferase 1 (Homo sapiens) (UniProt P26358)
protocol-text: inhibition of DNA methyltransferase DNMT1 – biochemical, molecular beacon, fluorescence, HinP1I cleavage, uHTS, primary screen (AID 588458)
condition-label: at 10 µM, hits give high values
Out of some 360,000 compounds screened, about 3,000 (0.83%) were called active. The sample as a whole holds a higher share of actives than the screen did.
measured-attribute: inhibition (reported as % activation of signal) (%)
Numeric answer only, unit % assumed.

Solved cases (6 shown):
{"compound": "CCOc1ccc(C(=O)Nc2cc(Cl)ccc2-n2cncn2)cc1OC", "measurement-unit": "%", "readout-number": 0.02}
{"compound": "COc1ccc(C(=O)N2CCN(c3ccc(C(C)=O)cc3F)CC2)cc1S(=O)(=O)NC1CC1", "measurement-unit": "%", "readout-number": 3.83}
{"compound": "Cc1nnc(SCC2=C(C(=O)O)N3C(=O)C(NC(=O)Cn4nc(C)c(Cl)c4C)C3SC2)s1 (stereo not given)", "measurement-unit": "%", "readout-number": 2.36}
{"compound": "O=S(=O)(NCCc1ccc(Cl)cc1)c1cccs1", "measurement-unit": "%", "readout-number": -0.79}
{"compound": "Cc1ccc2nc(-c3ccco3)c(Cc3cccc(Cl)c3)n2c1", "measurement-unit": "%", "readout-number": -0.88}
{"compound": "Cc1nnc(N/N=C/c2ccccn2)[nH]c1=O", "measurement-unit": "%", "readout-number": 5.44}

For the compound shown here, C=CC1=C(C(=O)O)N2C(=O)[C@@H](NC(=O)/C(=N\OCC(=O)O)c3csc(N)n3)[C@H]2SC1 , give the reported inhibition (reported as % activation of signal).
81.2

For the compound shown here, C=CC1=C(C(=O)O)N2C(=O)[C@@H](NC(=O)/C(=N/OCC(=O)O)c3csc(N)n3)[C@H]2SC1 , give the reported inhibition (reported as % activation of signal).
-43.7

For the compound shown here, COC(=O)c1ccccc1NC(=O)C1(S(=O)(=O)c2ccc(Cl)cc2)CC1 , give the reported inhibition (reported as % activation of signal).
-0.08

For the compound shown here, Cc1ccc(C)c(C(O)c2ncc(-c3cccc4ccccc34)[nH]2)c1 (stereo not given) , give the reported inhibition (reported as % activation of signal).
-0.1
